System: male db/db mice
experiment: Blood glucose, triglyceride and non-esterified fatty acid reduction in db/db mice
Assay type: in vivo
condition-details: Mus musculus, 216 h, oral once a day, dose 3 mg/kg, day 9 after administration, read-out: Blood free fatty acid reduction (%)
Method: A chemical suspended in 0.5% methyl cellulose was orally administered via a sonde into male db/db mice (Nippon Charles River, Yokohama, JP) once a day (0.3 to 30 mg/kg/day). Before treatment and after 4 and 9 days treatment, blood was collected through a tail vein after the mice were fasted for 1 hour, respectively. […] The determined blood glucose reduction, blood triglyceride reduction and blood non-esterified fatty acid reduction at day 9 after administration are shown in Table 1.
// reported inhibition in vivo at 3 mg/kg for each item listed
Give the value, in units of %, as a plain number.

# input Quick check: inhibition in vivo at 3 mg/kg of CC(C)O[C@@H](Cc1cccc(OC[C@H](O)COc2ccc(Cl)cc2)c1)C(=O)O [Example 282] ?
# output 18.4

# input Quick check: inhibition in vivo at 3 mg/kg of CC(C)O[C@@H](Cc1cccc(OC[C@H](F)COc2ccc(Cl)cc2C#N)c1)C(=O)O [Example 329] ?
# output 47.5

# input Quick check: inhibition in vivo at 3 mg/kg of CC(C)O[C@@H](Cc1cccc(OC[C@@H](F)COc2ccc(Cl)cc2Cl)c1)C(=O)O [Example 320] ?
# output 35.4

# input Quick check: inhibition in vivo at 3 mg/kg of CC(C)O[C@@H](Cc1cccc(CNC(=O)OCc2ccc(OC(F)(F)F)cc2)c1)C(=O)O [Ex 335] ?
# output 40

# input Quick check: inhibition in vivo at 3 mg/kg of CC(C)O[C@@H](Cc1cccc(CNC(=O)OCc2cccc(OC(F)(F)F)c2)c1)C(=O)O [Ex 344] ?
# output 58.1
